Where do these numbers come from? They come from the supplement of paper PMC12350171.

- System: P. vulgatus RND KO
- ASSAY_OVERVIEW: growth AUC normalised to DMSO control (median) (fraction of control); higher = less growth inhibition, active = hit call of the paper;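 note: active when median AUC fell below 0.1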
- RECORDED_CONDITIONS: 20 µM
Where a name gives a salt, the structure may show the parent alone.
Reported growth AUC normalised to DMSO control values are given for each entry in this list.
Reply with just the number.

Example results:
CC(C)NCC(O)COc1ccc(COCCOC(C)C)cc1 (stereo unspecified) [Bisoprolol hemifumarate]: 1.02
C[C@@H]1C[C@H]2[C@@H]3CCC4=CC(=O)C=C[C@]4(C)[C@@]3(Cl)[C@@H](O)C[C@]2(C)[C@@]1(OC(=O)c1ccco1)C(=O)CCl [Mometasone furoate]: 1.04
CC(=O)Nc1cccc(O)c1: 1

Exam item: Recall the reported growth AUC normalised to DMSO control of "COc1ccc2c(c1)c(CC(=O)OC/C=C(\C)CC/C=C(\C)CCC=C(C)C)c(C)n2C(=O)c1ccc(Cl)cc1" on P. vulgatus RND KO and write it down.
Marked response: 1

Exam item: Given COc1ccccc1OCC(O)CO (stereo unspecified) , report its growth AUC normalised to DMSO control on P. vulgatus RND KO.
Marked response: 0.984

Exam item: Quote growth AUC normalised to DMSO control with test system P. vulgatus RND KO for NCC[C@H](O)C(=O)N[C@@H]1C[C@H](N)[C@@H](O[C@H]2O[C@H](CN)[C@@H](O)[C@H](O)[C@H]2O)[C@H](O)[C@H]1O[C@H]1O[C@H](CO)[C@@H](O)[C@H](N)[C@H]1O [Amikacin hydrate]
Marked response: 1.02

Exam item: Send back P. vulgatus RND KO growth AUC normalised to DMSO control of CN1CCN(CC(=O)N2c3ccccc3C(=O)Nc3cccnc32)CC1 [Pirenzepine dihydrochloride] only.
Marked response: 1

Exam item: Report the value of growth AUC normalised to DMSO control obtained on P. vulgatus RND KO for "CCc1oc2ccccc2c1C(=O)c1cc(Br)c(O)c(Br)c1" .
Marked response: 0.57

###

- System: S. enterica typhimurium tolC KO
- ASSAY_OVERVIEW: growth AUC normalised to DMSO control (median) (fraction of control); higher = less growth inhibition, active = hit call of the paper
- RECORDED_CONDITIONS: 20 µM
Counter-ions that a name gives are not always drawn.
# reported growth AUC normalised to DMSO control; entries follow
API doc: respond with a numeric literal and nothing else, no unit.

CO[C@@H]1[C@@H](O[C@@H]2O[C@H](C)[C@@H](O[C@H]3C[C@@](C)(O)[C@@H](OC(=O)CC(C)C)[C@H](C)O3)[C@H](N(C)C)[C@H]2O)[C@@H](CC=O)C[C@@H](C)[C@@H](O)/C=C/C=C/C[C@@H](C)OC(=O)C[C@H]1OC(C)=O: 0.0649

Exam item: Supply growth AUC normalised to DMSO control value. Item: CC[C@H](C)[C@H](NC(=O)[C@H](Cc1ccc(O)cc1)NC(=O)[C@@H](NC(=O)[C@H](CCCN=C(N)N)NC(=O)[C@@H](N)CC(=O)O)C(C)C)C(=O)N[C@@H](Cc1cnc[nH]1)C(=O)N1CCC[C@H]1C(=O)N[C@@H](Cc1ccccc1)C(=O)O [Angiotensin II (Human) Trifluoroacetic acid salt]
Marked response: 1.02

Exam item: Give me measured growth AUC normalised to DMSO control, please, for this molecule: "O=C(O)Cc1ccc(-c2ccccc2)cc1"
Marked response: 0.988

Exam item: Identify growth AUC normalised to DMSO control associated with the molecule CNCCCC1c2ccccc2C=Cc2ccccc21 [Protriptyline hydrochloride]
Marked response: 0.951

Exam item: Retrieve growth AUC normalised to DMSO control measured for NC(=O)OCC(COC(N)=O)c1ccccc1 [Felbamate] and print it.
Marked response: 1

Exam item: Give reported growth AUC normalised to DMSO control value for "CC[C@H]1OC(=O)C[C@@H](O)[C@H](C)[C@@H](O[C@@H]2O[C@H](C)[C@@H](O[C@H]3C[C@@](C)(O)[C@@H](O)[C@H](C)O3)[C@H](N(C)C)[C@H]2O)[C@@H](CC=O)C[C@@H](C)C(=O)/C=C/C(C)=C/[C@@H]1CO[C@@H]1O[C@H](C)[C@@H](O)[C@@H](OC)[C@H]1OC"
Marked response: 0.721

Exam item: Check the records and state growth AUC normalised to DMSO control for CN1C2CCCC1CC(NC(=O)c1nn(C)c3ccccc13)C2 (configuration not stated)
Marked response: 1

Exam item: Consider the molecule CN(Cc1ccc(C(C)(C)C)cc1)Cc1cccc2ccccc12 [Butenafine hydrochloride] and give its recorded growth AUC normalised to DMSO control.
Marked response: 0.957
